Give measured residual kinase activity, TBK1 for each item. Keep answers brief.
Molecular target: TBK1 (Homo sapiens, UniProt Q9UHD2)
Sequence (Q9UHD2 1-729): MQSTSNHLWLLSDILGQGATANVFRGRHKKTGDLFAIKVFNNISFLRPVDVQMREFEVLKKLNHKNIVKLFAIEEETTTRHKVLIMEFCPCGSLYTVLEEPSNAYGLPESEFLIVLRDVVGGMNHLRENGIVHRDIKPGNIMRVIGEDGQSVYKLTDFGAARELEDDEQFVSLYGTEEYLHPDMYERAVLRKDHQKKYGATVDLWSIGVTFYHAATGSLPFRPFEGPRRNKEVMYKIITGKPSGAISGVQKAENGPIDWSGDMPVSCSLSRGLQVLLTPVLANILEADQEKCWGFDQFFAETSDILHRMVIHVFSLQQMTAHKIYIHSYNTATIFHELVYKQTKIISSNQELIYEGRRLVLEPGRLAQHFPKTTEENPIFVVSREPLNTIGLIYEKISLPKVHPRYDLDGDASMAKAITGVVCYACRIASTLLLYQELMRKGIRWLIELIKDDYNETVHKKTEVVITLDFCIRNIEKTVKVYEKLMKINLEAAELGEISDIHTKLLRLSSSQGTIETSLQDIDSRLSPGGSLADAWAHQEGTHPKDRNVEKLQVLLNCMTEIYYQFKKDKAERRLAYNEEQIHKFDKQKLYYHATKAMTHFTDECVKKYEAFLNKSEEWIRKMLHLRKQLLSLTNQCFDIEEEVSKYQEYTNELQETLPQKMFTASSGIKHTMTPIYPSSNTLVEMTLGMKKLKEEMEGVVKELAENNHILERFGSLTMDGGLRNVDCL
Test: Kinase profiling TBK1
Type: biochemical
Details: 100 micromolar inhibitor concentration; 100 is no change
Give bare numbers.

The cases that follow already have their residual kinase activity, TBK1 on record.
[[record]]
compound = "O=C(Nc1nc2cc(O)ccc2s1)c1cccnc1 [Compound 03-33]"
measure = "residual kinase activity, TBK1"
numeric_value = 97

[[record]]
compound = "COc1ccc2sc(NC(=O)c3ccccc3)nc2c1 [Compound 03-95]"
measure = "residual kinase activity, TBK1"
numeric_value = 100

[[record]]
compound = "COc1ccc2nc(NC(=O)c3ccccc3)sc2c1 [Compound 03-98]"
measure = "residual kinase activity, TBK1"
numeric_value = 95

[[record]]
compound = "O=C(Nc1nc2ccc(O)cc2s1)c1ccccc1 [Compound 03-60]"
measure = "residual kinase activity, TBK1"
numeric_value = 36

[[record]]
compound = "COC(=O)c1cccc(C(=O)Nc2nc3cc(OC)ccc3s2)c1 [Compound 03-108]"
measure = "residual kinase activity, TBK1"
numeric_value = 102

[[record]]
compound = "CC(=O)Nc1nc2cc(C)ccc2s1 [Compound 03-76]"
measure = "residual kinase activity, TBK1"
numeric_value = 78

[[record]]
compound = "O=C(Nc1nc2ccc(O)cc2s1)c1cccnc1 [Compound 08-44]"
measure = "residual kinase activity, TBK1"
numeric_value = 81

[[record]]
compound = "CC(=O)Nc1nc2ccc(F)cc2s1 [Compound 03-94]"
measure = "residual kinase activity, TBK1"
numeric_value = 91

[[record]]
compound = "O=C(Nc1nc2cc(O)ccc2s1)c1ccccc1 [Compound 03-102]"
measure = "residual kinase activity, TBK1"
numeric_value = 66


Query compound follows.
Q: Query: residual kinase activity, TBK1; subject: O=C(Nc1nc2cc(O)ccc2s1)c1ccccn1 [Compound 03-13]
Result: 73

---

Give measured residual kinase activity, ULK2 for each item. Keep answers brief.
Target: ULK2 (Homo sapiens)
Sequence (Q8IYT8 whole entry, species assumed): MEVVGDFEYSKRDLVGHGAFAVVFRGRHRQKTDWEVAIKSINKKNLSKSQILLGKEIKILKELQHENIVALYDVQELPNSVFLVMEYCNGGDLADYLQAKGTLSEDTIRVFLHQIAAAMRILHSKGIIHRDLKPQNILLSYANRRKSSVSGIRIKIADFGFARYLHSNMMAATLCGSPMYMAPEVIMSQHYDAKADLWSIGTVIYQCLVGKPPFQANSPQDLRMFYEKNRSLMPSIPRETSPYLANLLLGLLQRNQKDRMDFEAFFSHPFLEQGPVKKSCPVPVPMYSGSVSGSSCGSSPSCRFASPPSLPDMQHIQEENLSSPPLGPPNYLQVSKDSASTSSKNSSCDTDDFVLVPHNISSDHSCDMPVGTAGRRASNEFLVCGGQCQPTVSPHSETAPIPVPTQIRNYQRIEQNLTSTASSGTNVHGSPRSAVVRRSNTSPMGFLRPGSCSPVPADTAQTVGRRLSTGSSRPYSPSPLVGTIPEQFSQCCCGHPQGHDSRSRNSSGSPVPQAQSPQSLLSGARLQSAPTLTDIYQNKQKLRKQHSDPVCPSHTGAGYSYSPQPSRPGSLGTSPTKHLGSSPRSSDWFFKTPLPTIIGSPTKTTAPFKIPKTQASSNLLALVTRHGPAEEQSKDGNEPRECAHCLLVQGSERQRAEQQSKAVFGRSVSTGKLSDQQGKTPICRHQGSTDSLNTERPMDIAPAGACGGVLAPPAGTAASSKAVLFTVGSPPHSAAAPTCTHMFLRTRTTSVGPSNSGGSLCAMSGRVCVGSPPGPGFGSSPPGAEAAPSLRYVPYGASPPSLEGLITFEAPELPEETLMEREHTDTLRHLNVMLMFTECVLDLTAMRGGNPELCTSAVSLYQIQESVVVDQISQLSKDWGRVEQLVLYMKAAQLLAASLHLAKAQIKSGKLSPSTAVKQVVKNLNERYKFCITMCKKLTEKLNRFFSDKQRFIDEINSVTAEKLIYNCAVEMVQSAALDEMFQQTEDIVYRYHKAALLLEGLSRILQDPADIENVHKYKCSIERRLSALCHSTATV
Assay: Kinase profiling ULK2
Type: biochemical
Conditions: 100 micromolar inhibitor concentration; 100 is no change
One number for each entry.

The cases that follow already have their residual kinase activity, ULK2 on record.
[[record]]
compound = "CC(=O)Nc1nc2ccccc2s1 [Compound 03-32]"
numeric_value = 92

[[record]]
compound = "O=C(Nc1nc2cc(O)ccc2s1)c1cccnc1 [Compound 03-33]"
numeric_value = 85

[[record]]
compound = "CC(=O)Nc1nc2cc(C)ccc2s1 [Compound 03-76]"
numeric_value = 88

[[record]]
compound = "O=C(Nc1nc2ccc(O)cc2s1)c1ccccn1 [Compound 03-12]"
numeric_value = 87

[[record]]
compound = "O=C(Nc1nc2ccc(O)cc2s1)c1ccncc1 [Compound 08-42]"
numeric_value = 63


Give residual kinase activity, ULK2 for each of the items listed below.
1. O=C(Nc1nc2ccc(O)cc2s1)c1ccccc1 [Compound 03-60]
2. O=C(Nc1nc2ccc(O)cc2s1)c1cccnc1 [Compound 08-44]
3. O=C(Nc1nc2cc(O)ccc2s1)c1ccccn1 [Compound 03-13]
4. O=C(Nc1nc2cc(O)ccc2s1)c1ccncc1 [Compound 03-11]

Result:
[69, 84, 56, 86]

---

Biological target: TrkA (Homo sapiens, UniProt P04629)
Sequence (P04629 33-796, species assumed): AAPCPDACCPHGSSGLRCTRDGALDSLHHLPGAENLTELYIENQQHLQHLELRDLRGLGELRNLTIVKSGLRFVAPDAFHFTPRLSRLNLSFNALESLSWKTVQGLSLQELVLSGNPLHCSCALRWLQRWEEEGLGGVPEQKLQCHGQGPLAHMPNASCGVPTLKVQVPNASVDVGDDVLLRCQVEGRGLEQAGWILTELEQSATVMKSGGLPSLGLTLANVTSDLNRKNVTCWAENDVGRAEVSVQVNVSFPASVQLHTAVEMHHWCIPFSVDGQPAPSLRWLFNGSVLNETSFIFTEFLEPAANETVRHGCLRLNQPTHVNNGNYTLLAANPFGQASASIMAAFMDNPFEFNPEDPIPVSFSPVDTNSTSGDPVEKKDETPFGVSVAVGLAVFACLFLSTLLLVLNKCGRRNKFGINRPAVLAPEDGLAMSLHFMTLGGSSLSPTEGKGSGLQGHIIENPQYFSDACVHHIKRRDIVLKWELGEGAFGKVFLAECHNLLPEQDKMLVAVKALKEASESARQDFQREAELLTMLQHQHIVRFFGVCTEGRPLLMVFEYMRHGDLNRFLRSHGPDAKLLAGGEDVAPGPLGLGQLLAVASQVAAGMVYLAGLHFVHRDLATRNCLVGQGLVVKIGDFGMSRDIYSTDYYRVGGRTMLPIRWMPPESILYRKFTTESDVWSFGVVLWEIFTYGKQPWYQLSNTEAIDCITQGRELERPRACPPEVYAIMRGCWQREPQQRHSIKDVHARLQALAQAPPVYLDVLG
Assay: Kinase profiling TrkA
Type: biochemical
Conditions: 100 micromolar inhibitor concentration; 100 is no change
Give measured residual kinase activity, TrkA for each item. Keep answers brief.
Give bare numbers.

The cases that follow already have their residual kinase activity, TrkA on record.
[[record]]
compound = "O=C(Nc1nc2ccc(O)cc2s1)c1ccccn1 [Compound 03-12]"
numeric_value = 49

[[record]]
compound = "O=C(Nc1nc2cc(O)ccc2s1)c1ccccn1 [Compound 03-13]"
numeric_value = 57

[[record]]
compound = "CC(=O)Nc1nc2cc(C)ccc2s1 [Compound 03-76]"
numeric_value = 56

[[record]]
compound = "COC(=O)c1cccc(C(=O)Nc2nc3ccc(F)cc3s2)c1 [Compound 03-110]"
numeric_value = 111

[[record]]
compound = "CC(=O)Nc1nc2ccccc2s1 [Compound 03-32]"
numeric_value = 77

[[record]]
compound = "O=C(Nc1nc2cc(O)ccc2s1)c1ccccc1 [Compound 03-102]"
numeric_value = 38

[[record]]
compound = "O=C(Nc1nc2ccc(F)cc2s1)c1ccccc1 [Compound 03-92]"
numeric_value = 74

[[record]]
compound = "COc1ccc2sc(NC(=O)c3ccccc3)nc2c1 [Compound 03-95]"
numeric_value = 35


Give residual kinase activity, TrkA for each of the items listed below.
1. COc1ccc2sc(NC(=O)c3cccc(C(N)=O)c3)nc2c1 [Compound 03-113]
2. N#Cc1ccc2nc(NC(=O)c3ccccc3)sc2c1 [Compound 03-106]

Result:
1. 87
2. 66

---

Target: MNK1 (Homo sapiens, UniProt Q9BUB5)
Sequence (Q9BUB5 whole entry, species assumed): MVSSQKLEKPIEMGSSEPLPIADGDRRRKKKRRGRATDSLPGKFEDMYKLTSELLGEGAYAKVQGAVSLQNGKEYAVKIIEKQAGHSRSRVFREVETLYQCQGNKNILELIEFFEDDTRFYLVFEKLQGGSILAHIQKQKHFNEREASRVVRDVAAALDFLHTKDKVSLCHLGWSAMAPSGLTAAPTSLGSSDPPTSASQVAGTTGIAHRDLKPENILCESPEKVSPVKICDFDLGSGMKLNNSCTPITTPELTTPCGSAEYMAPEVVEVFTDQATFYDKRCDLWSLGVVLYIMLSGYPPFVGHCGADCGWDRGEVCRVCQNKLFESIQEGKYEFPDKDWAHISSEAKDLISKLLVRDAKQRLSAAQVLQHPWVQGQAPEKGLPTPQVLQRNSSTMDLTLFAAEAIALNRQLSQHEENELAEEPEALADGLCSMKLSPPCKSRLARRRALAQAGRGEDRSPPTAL
Test: Kinase profiling MNK1
Assay type: biochemical
Settings: 100 micromolar inhibitor concentration; 100 is no change; read-out: residual kinase activity, MNK1
Text: Any value less that 25 is considered to be highly significant inhibition.
MEASURE: remaining activity at 100 µM (%)
Numbers only, in %.

[[record]]
smiles_structure = "CC(=O)Nc1nc2ccc(C(F)(F)F)cc2s1"
assay_system = "MNK1 (Homo sapiens, UniProt Q9BUB5)"
value_units = "%"
numeric_value = 65

[[record]]
smiles_structure = "CC(=O)Nc1nc2ccc(O)cc2s1"
assay_system = "MNK1 (Homo sapiens, UniProt Q9BUB5)"
value_units = "%"
numeric_value = 28

[[record]]
smiles_structure = "CC(=O)Nc1nc2cc(C(F)(F)F)ccc2s1"
assay_system = "MNK1 (Homo sapiens, UniProt Q9BUB5)"
value_units = "%"
numeric_value = 89

[[record]]
smiles_structure = "CC(=O)Nc1nc2ccc(C#N)cc2s1"
assay_system = "MNK1 (Homo sapiens, UniProt Q9BUB5)"
value_units = "%"
numeric_value = 47


Give remaining activity at 100 µM for each of the items listed below.
1. CC(=O)Nc1nc2cc(F)ccc2s1
2. COc1ccc2sc(NC(C)=O)nc2c1

Result:
1: 64; 2: 77

---

Give measured residual kinase activity, PDK1 for each item. Keep answers brief.
Molecular target: PDK1 (Homo sapiens, UniProt O15530)
Sequence (O15530 whole entry): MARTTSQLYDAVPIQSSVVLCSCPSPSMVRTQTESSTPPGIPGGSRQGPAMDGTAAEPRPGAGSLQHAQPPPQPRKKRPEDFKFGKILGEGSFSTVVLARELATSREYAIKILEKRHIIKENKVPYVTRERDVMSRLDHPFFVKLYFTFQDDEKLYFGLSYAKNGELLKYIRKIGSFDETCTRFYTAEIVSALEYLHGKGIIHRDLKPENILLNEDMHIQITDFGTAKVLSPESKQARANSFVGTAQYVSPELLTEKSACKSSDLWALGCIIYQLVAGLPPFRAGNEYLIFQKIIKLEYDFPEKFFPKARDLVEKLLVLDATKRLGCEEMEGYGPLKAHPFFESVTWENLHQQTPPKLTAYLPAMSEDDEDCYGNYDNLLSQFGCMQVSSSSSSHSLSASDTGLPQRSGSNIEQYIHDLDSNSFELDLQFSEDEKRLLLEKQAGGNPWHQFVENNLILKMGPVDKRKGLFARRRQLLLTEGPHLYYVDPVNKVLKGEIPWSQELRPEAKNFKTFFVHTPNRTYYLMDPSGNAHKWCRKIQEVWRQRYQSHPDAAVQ
Test: Kinase profiling PDK1
Format: biochemical
Details: 100 micromolar inhibitor concentration; 100 is no change
One number for each entry.

[[record]]
smiles_structure = "CC(=O)Nc1nc2ccccc2s1"
measure = "residual kinase activity, PDK1"
numeric_value = 96

[[record]]
smiles_structure = "O=C(Nc1nc2cc(O)ccc2s1)c1ccccc1"
measure = "residual kinase activity, PDK1"
numeric_value = 74


Give residual kinase activity, PDK1 for each of the items listed below.
1. COc1ccc2sc(NC(=O)c3cccc(C(N)=O)c3)nc2c1
2. O=C(Nc1nc2ccc(F)cc2s1)c1ccccc1
3. O=C(Nc1nc2ccc(O)cc2s1)c1ccccn1
4. COc1ccc2sc(NC(=O)c3ccc(NC(C)=O)cc3)nc2c1
5. COc1ccc2sc(NC(=O)c3ccccc3)nc2c1

Result:
101
91
88
103
89

---

Molecular target: UniProt:Q9H0K1
Sequence (Q9H0K1 whole entry, species assumed): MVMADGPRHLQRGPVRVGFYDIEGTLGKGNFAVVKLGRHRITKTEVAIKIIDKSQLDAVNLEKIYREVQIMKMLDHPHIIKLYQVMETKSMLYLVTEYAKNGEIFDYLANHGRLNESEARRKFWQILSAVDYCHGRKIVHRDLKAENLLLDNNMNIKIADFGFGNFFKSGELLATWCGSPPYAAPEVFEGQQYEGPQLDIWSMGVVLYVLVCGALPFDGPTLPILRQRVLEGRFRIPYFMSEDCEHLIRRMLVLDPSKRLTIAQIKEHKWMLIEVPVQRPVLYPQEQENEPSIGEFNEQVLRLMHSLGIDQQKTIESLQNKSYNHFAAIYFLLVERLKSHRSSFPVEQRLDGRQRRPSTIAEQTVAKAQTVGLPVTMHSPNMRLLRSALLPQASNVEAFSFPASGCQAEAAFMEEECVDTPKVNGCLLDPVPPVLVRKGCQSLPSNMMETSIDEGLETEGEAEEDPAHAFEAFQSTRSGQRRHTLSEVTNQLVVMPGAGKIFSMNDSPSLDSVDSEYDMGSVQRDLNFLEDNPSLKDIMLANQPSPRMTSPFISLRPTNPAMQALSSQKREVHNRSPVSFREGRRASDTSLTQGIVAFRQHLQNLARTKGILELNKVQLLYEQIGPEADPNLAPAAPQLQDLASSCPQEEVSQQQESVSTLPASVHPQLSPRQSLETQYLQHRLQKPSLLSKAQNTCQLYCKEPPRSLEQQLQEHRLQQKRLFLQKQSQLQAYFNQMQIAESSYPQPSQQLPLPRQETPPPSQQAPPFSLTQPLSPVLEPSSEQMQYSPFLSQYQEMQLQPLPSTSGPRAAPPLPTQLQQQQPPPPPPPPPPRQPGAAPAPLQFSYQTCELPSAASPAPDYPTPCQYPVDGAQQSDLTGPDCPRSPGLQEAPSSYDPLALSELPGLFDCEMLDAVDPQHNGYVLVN
Test: Kinase profiling SIK2
Format: biochemical
Details: 100 micromolar inhibitor concentration; 100 is no change
Give measured residual kinase activity, SIK2 for each item. Keep answers brief.
Give bare numbers.

The cases that follow already have their residual kinase activity, SIK2 on record.
[[record]]
smiles_structure = "O=C(Nc1nc2ccc(O)cc2s1)c1ccccn1"
assay_system = "UniProt:Q9H0K1"
numeric_value = 77

[[record]]
smiles_structure = "O=C(Nc1nc2cc(O)ccc2s1)c1cccnc1"
assay_system = "UniProt:Q9H0K1"
numeric_value = 69

[[record]]
smiles_structure = "CC(=O)Nc1nc2ccccc2s1"
assay_system = "UniProt:Q9H0K1"
numeric_value = 81


Give residual kinase activity, SIK2 for each of the items listed below.
1. O=C(Nc1nc2ccc(O)cc2s1)c1ccncc1
2. O=C(Nc1nc2ccc(O)cc2s1)c1ccccc1

Result:
82
26

Give residual kinase activity, SIK2 for each of the items listed below.
1. CC(=O)Nc1nc2cc(C)ccc2s1
2. O=C(Nc1nc2cc(O)ccc2s1)c1ccccn1
3. O=C(Nc1nc2cc(O)ccc2s1)c1ccncc1
4. O=C(Nc1nc2ccc(O)cc2s1)c1cccnc1

Result:
1. 71
2. 96
3. 79
4. 68
